Origin of values: PubChem BioAssay AID434970

Reported activation factor is given for each of the following compounds.
- Test system: intestinal alkaline phosphatase [Mus musculus]
- EXPERIMENT SUMMARY: mouse intestinal phosphatase enzyme activation – biochemical, luminescence, single concentration, confirmation (AID 434970)
- EXPERIMENTAL PARAMETERS: purified mouse IAP, CDP-Star luminescence, 30 min, at 10 µM; measured here: IAP activation factor, stronger effect = higher value
Out of some 11,000 compounds screened, about 310 (2.8%) were called active. The list comes from a sample in which actives are over-represented; it also holds close analogues and randomly drawn compounds.
QUANTITY KIND: activation factor

[[record]]
compound = "c1ccc(-c2cc3c(NCC4COc5ccccc5O4)ncnc3s2)cc1 (stereo not given)"
reported_result = 1.97

[[record]]
compound = "Cc1sc2nc(SCC(=O)Nc3c(C)n(C)n(-c4ccccc4)c3=O)n(C)c(=O)c2c1C"
reported_result = 0.771

[[record]]
compound = "Cc1[nH]c2ccccc2c1C(=O)COC(=O)C1CC(=O)N(Cc2ccco2)C1 (stereo not given)"
reported_result = 1.14

[[record]]
compound = "COc1ccccc1CC(=O)N(CCC#N)CCC#N"
reported_result = 0.913

[[record]]
compound = "CCCN(CCC)C(=O)c1ccc2c(c1)OCO2"
reported_result = 1.05

[[record]]
compound = "CC(=O)Nc1ccc(Nc2nc(C)nc3c2oc2ccccc23)cc1"
reported_result = 1.01

[[record]]
compound = "CCN(c1ccccc1)S(=O)(=O)c1ccc(NCC2COc3ccccc3O2)nc1 (stereo not given)"
reported_result = 1.29

[[record]]
compound = "O=C(Nc1cccnc1)Nc1cc(Cl)cc(Cl)c1"
reported_result = 1.69

[[record]]
compound = "CC[C@]12c3[nH]c4cc(-c5ccco5)ccc4c3CCN1C(=O)[C@@H](CC(=O)NC(C)(C)C)C[C@@H]2C(=O)N1CCN(C(=O)C2CC2)CC1"
reported_result = 0.984

[[record]]
compound = "FC(F)(F)c1cccc(NC(=S)NCC2COc3ccccc3O2)c1 (stereo not given)"
reported_result = 1.43


----------
// reported activation factor for each item listed
- Tested on: intestinal alkaline phosphatase [Mus musculus]
- EXPERIMENT SUMMARY: mouse intestinal phosphatase enzyme activation – biochemical, luminescence, single concentration, confirmation (AID 434970)
- EXPERIMENTAL PARAMETERS: purified mouse IAP, CDP-Star luminescence, 30 min, at 10 µM; measured here: IAP activation factor, stronger effect = higher value
Out of some 11,000 compounds screened, about 310 (2.8%) were called active. Shown is part of a subset that was picked to be rich in actives.
QUANTITY KIND: activation factor

[[record]]
molecule = "Cc1ccc(C)c(CN2CCC(CNC(=O)Nc3ccc(Cl)cc3)CC2)c1"
reported_result = 2.23

[[record]]
molecule = "Cc1cccc(NC(=O)C2=C(O)c3ccccc3N(C)S2(=O)=O)c1"
reported_result = 0.998

[[record]]
molecule = "Cn1cccc1C(=O)OCC(=O)Nc1ccc2c(c1)CCC2"
reported_result = 1.05

[[record]]
molecule = "COc1ccc(C(=O)Nc2ccc(S(=O)(=O)N3CCCCC3)cc2)cc1"
reported_result = 1.11

[[record]]
molecule = "Cc1ccc(S(=O)(=O)N2CCC(C(=O)Nc3ccc(S(=O)(=O)N4CCCC4)cc3)CC2)cc1C"
reported_result = 2.22

[[record]]
molecule = "O=C(Nc1ccc2c(c1)CCC2)Nc1ccccc1F"
reported_result = 1.69

[[record]]
molecule = "COc1ccc(S(=O)(=O)N2CCC(C(=O)Nc3cccc(Cl)c3)CC2)cc1OC"
reported_result = 1.62

[[record]]
molecule = "CCCOc1ccc(Oc2cc(C)nc(SC)n2)nn1"
reported_result = 1.01

[[record]]
molecule = "Cc1cc(C)cc(NC(=O)C2CCN(S(=O)(=O)c3ccc4c(c3)NC(=O)C(C)S4)CC2)c1 (configuration not stated)"
reported_result = 1.96

[[record]]
molecule = "O=C(Nc1ccc(S(=O)(=O)N2CCCCCC2)cc1)C1CCCO1 (configuration not stated)"
reported_result = 0.946

[[record]]
molecule = "Cc1cccc(NC(=O)Nc2ccc3c(c2)CCC3)c1"
reported_result = 1.41

[[record]]
molecule = "COc1cccc(CN(CC(=O)NC2CCCC2)C(=O)Cn2nnc(-c3cccs3)n2)c1"
reported_result = 1.07

[[record]]
molecule = "O=C(Nc1ccccc1)Nc1ccc2c(c1)CCC2"
reported_result = 1.95

[[record]]
molecule = "CCNC(=O)C1CCN(S(=O)(=O)c2ccc(F)cc2)CC1"
reported_result = 0.998

[[record]]
molecule = "Cc1ccc(C)c(CN2CCC(CNC(=O)Nc3ccc(F)c(Cl)c3)CC2)c1"
reported_result = 1.98

[[record]]
molecule = "Cc1ccc(S(=O)(=O)NNC(=O)C2CCN(S(=O)(=O)c3ccc(C)cc3)CC2)cc1"
reported_result = 0.962

[[record]]
molecule = "Cc1ccc(NC(=O)C2CCN(S(=O)(=O)c3ccc4c(c3)NC(=O)C(C)S4)CC2)cc1Cl (configuration not stated)"
reported_result = 1.71

[[record]]
molecule = "CCc1ccc(NC(=O)C2CCN(S(=O)(=O)c3ccc4c(c3)CC(C)N4C(C)=O)CC2)cc1 (configuration not stated)"
reported_result = 1.49

[[record]]
molecule = "Cc1ccc(C(C)NC(=S)NCc2ccc(F)cc2)c(C)c1 (configuration not stated)"
reported_result = 1.39

[[record]]
molecule = "CSc1cccc(NC(=O)C2CCN(S(=O)(=O)c3ccc(F)cc3)CC2)c1"
reported_result = 1.98

[[record]]
molecule = "CN(C)S(=O)(=O)n1cnc(-c2ccccc2)c1-c1ccccc1"
reported_result = 1.06

[[record]]
molecule = "Cc1cc[n+](CCC(=O)O)c2ccccc12"
reported_result = 0.901

